Answer each item with its documented IC50.
Target: human CaSR (Homo sapiens)
Sequence (P41180 20-1078): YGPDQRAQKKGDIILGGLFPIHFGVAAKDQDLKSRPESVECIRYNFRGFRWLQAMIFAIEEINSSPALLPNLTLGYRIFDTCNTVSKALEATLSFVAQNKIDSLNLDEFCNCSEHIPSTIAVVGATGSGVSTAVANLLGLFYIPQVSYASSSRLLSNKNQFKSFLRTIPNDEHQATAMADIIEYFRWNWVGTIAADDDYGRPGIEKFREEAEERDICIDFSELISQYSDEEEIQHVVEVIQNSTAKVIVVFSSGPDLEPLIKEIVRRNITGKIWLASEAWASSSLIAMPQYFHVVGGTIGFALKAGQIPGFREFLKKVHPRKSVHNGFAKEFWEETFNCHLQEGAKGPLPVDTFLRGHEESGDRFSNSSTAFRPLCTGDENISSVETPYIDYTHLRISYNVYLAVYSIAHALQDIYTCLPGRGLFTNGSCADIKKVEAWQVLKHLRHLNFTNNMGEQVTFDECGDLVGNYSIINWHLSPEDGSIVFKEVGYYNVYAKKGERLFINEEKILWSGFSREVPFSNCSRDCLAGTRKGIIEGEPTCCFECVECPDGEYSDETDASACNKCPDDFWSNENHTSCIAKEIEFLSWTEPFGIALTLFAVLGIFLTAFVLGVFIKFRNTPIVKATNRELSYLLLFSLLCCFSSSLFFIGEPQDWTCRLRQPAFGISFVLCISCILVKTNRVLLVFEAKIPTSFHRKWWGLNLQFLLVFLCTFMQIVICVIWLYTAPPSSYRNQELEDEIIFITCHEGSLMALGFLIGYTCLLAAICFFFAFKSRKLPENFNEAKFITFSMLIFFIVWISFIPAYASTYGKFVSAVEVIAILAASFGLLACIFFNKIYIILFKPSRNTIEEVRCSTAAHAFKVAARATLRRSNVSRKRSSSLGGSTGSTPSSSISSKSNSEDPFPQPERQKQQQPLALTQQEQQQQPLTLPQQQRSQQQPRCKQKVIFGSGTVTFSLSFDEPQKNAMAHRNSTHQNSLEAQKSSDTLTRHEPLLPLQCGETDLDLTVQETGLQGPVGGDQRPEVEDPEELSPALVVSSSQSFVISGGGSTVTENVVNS
Assay: CaSR FLIPR assay (calcilytic activity)
Format: cell-based
Parameters: expressed in transfected cells
Details: HEK293 cells stably expressing human recombinant CaSR; 1 mM CaCl2 agonist; Tables 1-24; read-out: FLIPR ASSAY IC50
One number for each entry, in nM.

Here's what some known entries look like.
{"columns": ["compound", "IC50, nM"],
 "data": [
  ["Cc1ccc([C@@H](C)OC[C@H](O)CNC(C)(C)CCSc2ccccc2)c2c1O[C@@H]1[C@@H](C(=O)O)[C@H]21", 50],
  ["Cc1ccc([C@@H](C)OC[C@H](O)CNC(C)(C)Cc2ccc3ccccc3c2)c2c1O[C@@H]1[C@@H](C(=O)O)[C@H]21", 14],
  ["Cc1cc(Cl)c([C@@H](C)OC[C@H](O)CNC(C)(C)Cc2ccc3sccc3c2)c2c1O[C@@H]1[C@@H](C(=O)O)[C@H]21", 14],
  ["C[C@@H](OC[C@H](O)CNC(C)(C)CC1Cc2ccccc2C1)c1cccc2c1O[C@H]1[C@H](C(=O)O)[C@@H]21", 307],
  ["COc1ccc(CC(C)(C)NC[C@@H](O)CO[C@H](C)c2cccc3c2[C@@H]2[C@H](O3)[C@H]2C(=O)O)c(F)c1", 108]
]}

Each compound below has a recorded value; state its IC50.
1. C[C@@H](OC[C@H](O)CNC(C)(C)Cc1ccc2ccccc2c1)c1cc(Cl)cc2c1O[C@@H]1[C@@H](C(=O)O)[C@H]21
2. C[C@@H](OC[C@H](O)CNC(C)(C)Cc1ccc2occc2c1)c1cccc2c1[C@@H]1[C@H](O2)[C@H]1C(=O)O
3. C[C@@H](OC[C@H](O)CNC(C)(C)Cc1ccc2ccccc2c1)c1cccc2c1C[C@@H]1[C@@H](C(=O)O)[C@H]21
4. CCOC(=O)[C@@H]1[C@H]2Oc3c(C)ccc([C@@H](C)OC[C@H](O)CNC(C)(C)Cc4ccc(SC)c(F)c4)c3[C@H]21
5. C[C@@H](OC[C@H](O)CNC(C)(C)Cc1ccc2ccccc2c1)c1cccc2c1[C@@H]1[C@H](O2)[C@H]1C(=O)NS(=O)(=O)C1(C)CC1
6. Cc1ccc([C@@H](C)OC[C@H](O)CNC(C)(C)Cc2ccc3ncccc3c2)c2c1O[C@H]1C2[C@@H]1C(=O)O (stereo partly shown)

Response line:
20
137
270
130
30
460

Prompt line: Hello, please tell me recorded IC50 for this one: C[C@@H](OC[C@H](O)CNC(C)(C)Cc1ccc2ccccc2c1)c1ccc(Cl)c2c1C1C(O2)C1C(=O)O (stereo partly shown)
Response line: 40
